Taken from PubChem BioAssay AID588497.

Test system: Botulinum neurotoxin type F light chain protease (Clostridium botulinum)
Protocol details: BoNT/F light chain protease inhibitors, primary screen, biochemical, flow cytometry, MLPCN library (AID 588497); further: plate controls were buffer without enzyme for full effect and enzyme alone for no effect
Run parameters: Multiplex microsphere protease cleavage assay, at 10 µM, active compounds read high
Hit rate of the full screen: of about 360,000 compounds, about 780 (0.22%) were called active. Roughly 4% stayed inconclusive and do not appear here. Only a selection was taken, and actives are over-represented in it overall.
Reported inhibition values follow for various molecules
Measured attribute: inhibition (%)

# Molecule, Measure unit, Readout value
rows = [
    ("CCCN1C2CCCC1CC(NC(=O)c1cccc(OC)c1)C2 (stereo not given)", "%", 34.7),
    ("Clc1nc(NC2CCCC2)nc(N2CCOCC2)n1", "%", 53.9),
    ("C=C1C(=O)OC2C1CCC(C)=CCCC1(C)OC21 (stereo not given)", "%", -2.6),
    ("Cc1ccc2nc(-c3ccco3)c(Cc3cccc(Cl)c3)n2c1", "%", 0),
    ("Cc1cc2nc(-c3ccc(Cl)cc3)c(Cc3cccc(F)c3)n2c(C)c1Br", "%", -1.2),
    ("Cc1cc(C(=O)NNC(=O)CCC2CCCCC2)c(C)o1", "%", 0.3),
    ("CC(=O)Nc1cccc(-c2ccnc3c2CC(C)(C(=O)NCc2ccccc2)O3)c1 (stereo not given)", "%", -1.6),
    ("CCc1nc2c(OCCC3CCCCC3)cccn2c1N(C)C(=O)c1ccco1", "%", 1.8),
    ("CCOc1ccc(CCN2C(=S)N([C@@H](CC(C)C)CN3CCC[C@@H]3CN3C(=S)NC[C@@H]3Cc3ccc(O)cc3)C[C@@H]2CC(C)C)cc1", "%", -7.7),
    ("OC(c1ccc(Cl)cc1)c1ncc(-c2ccc(Cl)cc2)[nH]1 (stereo not given)", "%", -8.9),
    ("CC(C)Cc1nnc(NC(=O)CCC(=O)Nc2ccc3cn[nH]c3c2)s1", "%", 43.7),
    ("CC(C)Cc1nnc(NC(=O)CCNC(=O)c2ccccc2Cl)s1", "%", -5.1),
    ("CCc1nc2c(OCc3ccc(C(F)(F)F)cc3)cccn2c1N(C)C(=O)CC(C)C", "%", 0.4),
    ("CC(C)Cc1nnc(NC(=O)CN2C(=O)NC3(CCCCC3)C2=O)s1", "%", 7.7),
    ("CN(C)C1CN(Cc2cn(Cc3ccccc3)nn2)S(=O)(=O)C1 (stereo not given)", "%", -1.7),
    ("CC(=O)c1ccc(-c2cnc3c(NC=O)cc(-c4cccc(NS(C)(=O)=O)c4)cn23)cc1", "%", 3),
    ("O=C(NCCc1ccc(Cl)cc1)C1CCCN1C(=O)NCc1ccccc1 (stereo not given)", "%", -20.3),
    ("Cc1ccc(Cc2c(-c3ccco3)nc3ccc(Cl)cn23)cc1", "%", -6),
    ("CCCCCc1c(-c2cccc(Br)c2)ncn1CCc1ccccc1OC", "%", -6.3),
    ("CC(=O)Nc1ccc(CNc2nc(NCCN(C)C)nc3cc(-c4ccccc4)sc23)cc1", "%", -18.9),
    ("Cc1ccc(CNC(=O)C2CCCN2C(=O)NCc2ccccc2)cc1 (stereo not given)", "%", 5.7),
    ("O=C(CNC(=O)c1ccccc1F)c1ccc(Br)cc1", "%", -24.7),
    ("O=C1Nc2ccccc2NC(c2ccc3c(c2)OCO3)=C1N(Cc1ccc(F)cc1)C(=O)c1ccco1", "%", -0.6),
    ("CCOc1nnc(C)c2c(C)n(-c3cccc(Cl)c3)nc12", "%", 46.5),
    ("CN(C)c1ccc(C=C2C(=O)OC3(CCCC3)OC2=O)cc1", "%", 6.6),
    ("CCCCN(C=O)c1c(CC)nc2c(OCCC3CCCCC3)cccn12", "%", -1.8),
    ("CC(=O)Nc1cc(-c2cccc(CO)c2)cn2c(-c3cccc(C(F)(F)F)c3)cnc12", "%", 0.9),
    ("COc1ccc(/C=N/N(C)C2=NS(=O)(=O)c3ccccc32)cc1OC", "%", -14.8),
    ("CC(C)C[C@@H](COCc1ccc(Cl)cc1)N1CCN(C(=O)c2ccc(Cl)cc2Cl)CCC1=O", "%", -2.4),
    ("C=CCOCCN(C)C1=NS(=O)(=O)c2ccccc21", "%", -7.4),
]
